protocol details: protein stability index of a GFP-peptide fusion (yeast GPS) (PSI 1-4); higher = more stable; sorted into four equal gates, so the index is relative within each strain
assay context: san1∆

{"columns": ["polymer sequence", "protein stability index"],
 "data": [
  ["RYFFWLQEKNSGNLPLN [RPN13]", 2.81],
  ["NNTVDPGFDEFQLIDMK [CSI1]", 3.31],
  ["GSVFNMNGNTNANTVFA [YOR098C/NUP1]", 3.01],
  ["QSSFAGTWSAKEAVFKS [FAS2]", 3.18],
  ["LVCGNDSSYQDIFAVNL [RET1]", 2.24],
  ["QTKSNGTAGGNTFGSSS [YJL041W/NSP1]", 2.96],
  ["PIMQTQMPLNSNGGNNM [SNF2]", 2.84],
  ["STEETTANTGTIGKRRT [TAF14]", 3.38],
  ["QHQEEPLLSLDVTPISM [RPN4]", 3.07],
  ["NSDLEFNTFWDEKGNEI [ARP9]", 3.31],
  ["NVKEITEKLKISPESVF [SMC3]", 2.32],
  ["YEAGASHGNPVVDFLKR [FAS1]", 3.35],
  ["ESLTFNEFQLQWGKYQT [SWI1]", 2.67],
  ["DNEEASVKLDLQDDEDH [BRN1]", 3.05],
  ["KKSVLKQVQDFEENDHP [COR1]", 2.81],
  ["PNERKAKQAKIRAGEFD [SNF2]", 2.99],
  ["EGHDWKAPTKLDDPEAV [DIS3]", 3.23],
  ["SMDVDDKNSGVKSEVDV [ITC1]", 1.78],
  ["PLGILHIPICVTFSFFN [RRP45]", 1.2],
  ["MGKSHGYRSRTRYMFQR [RPL21A]", 3.3],
  ["QIAFDLVSSASQQLLEI [RPN2]", 1.66],
  ["ALEYIGAKVKTMRRQKL [RET1]", 2.22],
  ["RGFFHLNEALLQCPMLY [CSN12]", 1.9],
  ["YKEIRDVSRVAAVETLY [RPL20A]", 1.75],
  ["GNDNLIKAPTVAADGKL [YLR335W/NUP2]", 2.56],
  ["NAELLDYLFHLLISLNI [YLR018C/POM34]", 1.21],
  ["GTWSAKEAVFKSLGVKS [FAS2]", 3.23],
  ["EALQYDPQPFLKHVLQL [SNU114]", 2.35],
  ["DMFEMSDEEENNNNKSI [SSN2]", 3.32],
  ["GAKFENIVHNFKERQMM [AAR2]", 2.76]
]}

---

protocol details: protein stability index of a GFP-peptide fusion (yeast GPS) (PSI 1-4); higher = more stable; sorted into four equal gates, so the index is relative within each strain
assay context: doa10∆
Binary call on protein stability index: criterion met from 2 upward, criterion not met beneath that.

{"columns": ["polymer sequence", "assigned label"],
 "data": [
  ["TLVKGPKEPRLKSQMDT [SKI6]", "criterion met"],
  ["RSTDRDRVKVIECFKPG [CSL4]", "criterion met"],
  ["MTRSSVLADALNAINNA [RPS22A]", "criterion met"],
  ["QQQLVNQMKVAPIPKQL [GAL11]", "criterion met"],
  ["RVHRRNNRWAENNYKKR [RPS23A]", "criterion met"],
  ["IDLLWKGKTPKNAAESS [PRP28]", "criterion met"],
  ["VKVQPEGKYIVDVAKDI [RPT6]", "criterion met"],
  ["LRLSNFFTIDHFIQKLH [SIR2]", "criterion met"],
  ["SLTYKKISLRDICLKLN [RPN3]", "criterion met"],
  ["DALKVVLRTALVHDGLA [RPS12]", "criterion met"],
  ["DYRPAEETEAQAEPVEA [RPS3]", "criterion met"],
  ["DNVNSTTGSIFEKDLMA [BRN1]", "criterion met"],
  ["DTNAPVAATITSSQKEP [SRB8]", "criterion met"],
  ["FVSSLSNTSTLKNMLYV [BRR2]", "criterion not met"],
  ["SSDELKVIEEQLKHTKL [SMC4]", "criterion met"],
  ["TVKLYLPEILNVLCVNI [ECM29]", "criterion not met"],
  ["YIDIRTNNVLRKLGLLG [MTW1]", "criterion not met"],
  ["SVMPPNEVYSAYVVNDT [DLS1]", "criterion met"],
  ["NKLSSILQNEHDYWNKI [SRB4]", "criterion met"],
  ["RTMLELITQLDGFDPRG [RPT1]", "criterion met"],
  ["KKFNMGKEFEARNLIED [RPC53]", "criterion met"],
  ["EELLQLFLNNFVSRIPI [IRR1]", "criterion met"],
  ["TEGPSDKKLNLNLPLQF [SNF12]", "criterion met"],
  ["TCSSDQHIKVFKLDKDT [YGL100W/SEH1]", "criterion met"],
  ["IQRFFALHYLVPFIIAA [COB]", "criterion not met"],
  ["KNVGNKSPEQCILRFLQ [SWI3]", "criterion met"],
  ["RPKCGDCGSALQGISTL [RPL34A]", "criterion not met"],
  ["QAQAQAHAQHQPSQQPQ [GAL11]", "criterion met"],
  ["YIKNILEAPVKSIENPT [YLR335W/NUP2]", "criterion met"]
]}
